# System: CCRF-CEM
# MEASUREMENT_PROTOCOL: Cytotoxicity against human CCRF-CEM cells assessed as inhibition of cell growth incubated for 72 hrs by MTS assay
# Type: functional, cell-based
MEASUREMENT_NAME: IC50

{"columns": ["CHEMICAL_STRING", "IC50"],
 "data": [
  ["C=C(C)[C@@H]1CC[C@]2(C(=O)O)CC[C@]3(C)[C@H](CC[C@@H]4[C@@]5(C)CC=C(c6cccc(C(F)(F)F)c6)C(C)(C)[C@@H]5CC[C@]43C)[C@@H]12", "19 µM"],
  ["C=C(C)[C@@H]1CC[C@]2(C(=O)O)CC[C@]3(C)[C@H](CC[C@@H]4[C@@]5(C)CC=C(c6ccccc6C(=O)OC)C(C)(C)[C@@H]5CC[C@]43C)[C@@H]12", "15 µM"],
  ["C=C(C)[C@@H]1CC[C@]2(C(=O)O)CC[C@]3(C)[C@H](CC[C@@H]4[C@@]5(C)CC=C(c6ccc([N+](=O)[O-])cc6)C(C)(C)[C@@H]5CC[C@]43C)[C@@H]12", "26 µM"],
  ["C=C(C)[C@@H]1CC[C@]2(C(=O)O)CC[C@]3(C)[C@H](CC[C@@H]4[C@@]5(C)CC=C(c6ccccc6OC)C(C)(C)[C@@H]5CC[C@]43C)[C@@H]12", "16 µM"]
]}

From here, focus on the item given below.
Answer with reported IC50 of C=C(C)[C@@H]1CC[C@]2(C(=O)O)CC[C@]3(C)[C@H](CC[C@@H]4[C@@]5(C)CC=C(c6cccc(N)c6)C(C)(C)[C@@H]5CC[C@]43C)[C@@H]12
1.8 µM
